The reader will find reported Percent BCL6 remaining at maximal degradation (Ycon) values listed item by item below.
Biological target: BCL6 (Homo sapiens, UniProt P41182)
Construct: HiBiT-tag knocked into endogenous BCL6 locus using CRISPR; endogenous in cells; host or cells: DHL-4_BCL6_HiBiT cells (CRISPR knock-in)
Experiment: BCL6_HiBiT degradation assay (2 h)
Assay type: cell-based
Conditions: DHL-4_BCL6_HiBiT cells, read-out: YCon (% remaining maximal effect)
Method: A DHL-4 cell line with HiBiT-tag knocked into endogenous BCL6 locus using CRISPR was generated. The DHL-4_BCL6_HiBiT cells were dispensed into 384-well plates (Corning no. 3570) that were pre-spotted with compounds. […] After 30 min, luminescence was read on an Envision or PHERAstar luminescence reader. […]

Past entries and their recorded results:
>>> assay_value("CO[C@@H]1CN(c2ncc(C#N)c(Nc3ccc4c(c3)CC(=O)N4C)n2)CC[C@H]1Nc1ccc2c(N3CCC(=O)NC3=O)nn(C)c2c1")
"20 to 60%"
>>> assay_value("C[C@@H]1C(=O)N(c2ccc3c(C4CCC(=O)NC4=O)nn(C)c3c2)CC[C@H]1N(C)c1ncc(Cl)c(Nc2ccc3c(c2)CC(=O)N3C)n1 (single isomer, unassigned)")
"< 20%"
>>> assay_value("C[C@@H]1CN(c2ncc(Cl)c(Nc3cc(F)c4c(c3)CC(=O)N4C)n2)CC[C@H]1Nc1ccc2c(C3CCC(=O)NC3=O)nn(C)c2c1 (some centres unmarked)")
"< 20%"
>>> assay_value("C[C@H]1C[C@@H](N(C)c2ccc3c(C4CCC(=O)NC4=O)nn(C)c3c2)CCN1c1ncc(Cl)c(Nc2ccc3c(c2)CC(=O)N3C)n1 (some centres unmarked)")
"> 60%"
>>> assay_value("C[C@@H]1CN(c2ncc(Cl)c(Nc3ccc4c(c3)CC(=O)N4CCC(C)(C)F)n2)CC[C@H]1Nc1ccc2c([C@@H]3CCC(=O)NC3=O)nn(C)c2c1 (single isomer, unassigned)")
"< 20%"
>>> assay_value("CN1C(=O)Cc2cc(Nc3nc(N4CC[C@H](Nc5ccc6c(C7CCC(=O)NC7=O)nn(C)c6c5)[C@H](F)C4)ncc3Cl)ccc21 (some centres unmarked)")
"> 60%"
>>> assay_value("CN1C(=O)Cc2cc(Nc3nc(N(C)[C@H]4CC[C@H](Nc5ccc6c(C7CCC(=O)NC7=O)nn(C)c6c5)CC4)ncc3Cl)ccc21 (some centres unmarked)")
"> 60%"

Now examine the next entry.
### Prompt Entry CN1C(=O)Cc2cc(Nc3nc(NC4CCN(c5ccc6c(C7CCC(=O)NC7=O)nn(C)c6c5)CC4(F)F)ncc3Cl)ccc21 (centres unmarked) has what Percent BCL6 remaining at maximal degradation (Ycon)?
### Response 20 to 60%

----------
Target: BCL6 (Homo sapiens, UniProt P41182)
Construct: HiBiT-tag knocked into endogenous BCL6 locus using CRISPR; endogenous in cells; host or cells: DHL-4_BCL6_HiBiT cells (CRISPR knock-in)
Assay: BCL6_HiBiT degradation assay (2 h)
Assay type: cell-based
Settings: DHL-4_BCL6_HiBiT cells, read-out: YCon (% remaining maximal effect)
property.label: Percent BCL6 remaining at maximal degradation (Ycon)

>>> assay_value("C[C@@H]1CN(c2ncc(Cl)c(Nc3ccc4c(c3F)CC(=O)N4C)n2)CC[C@H]1Nc1ccc2c([C@@H]3CCC(=O)NC3=O)nn(C)c2c1 (single isomer, unassigned)")
"< 20%"

### Prompt Given the compound Cn1nc(C2CCC(=O)NC2=O)c2ccc(NC3CCN(c4ncc(Cl)c(Nc5ccc6c(c5)CC(=O)N6CC(F)(F)F)n4)CC3)cc21 (stereo not drawn) , what is its reported Percent BCL6 remaining at maximal degradation (Ycon)?
### Response > 60%

### Prompt Any idea what Percent BCL6 remaining at maximal degradation (Ycon) was measured for C[C@H]1C[C@H](N(C)c2ccc3c([C@H]4CCC(=O)NC4=O)nn(C)c3c2)CCN1c1ncc(Cl)c(Nc2ccc3c(c2)CC(=O)N3C)n1 (single isomer, unassigned) ?
### Response > 60%

### Prompt Recorded Percent BCL6 remaining at maximal degradation (Ycon) for CN1C(=O)Cc2cc(Nc3nc(N4CCN(c5ccc6c(C7CCC(=O)NC7=O)nn(C)c6c5)C(=O)C4)ncc3Cl)ccc21 (stereo not drawn) , please?
### Response > 60%

### Prompt Which Percent BCL6 remaining at maximal degradation (Ycon) is listed for CN1C(=O)Cc2cc(Nc3nc(N4CCC(Nc5ccc6c(C7CCC(=O)NC7=O)nn(C)c6c5)C(F)(F)C4)ncc3Cl)ccc21 (stereo not drawn) ?
### Response > 60%

### Prompt Returns the measured Percent BCL6 remaining at maximal degradation (Ycon) for the input compound. Input: CN(c1ncc(Cl)c(Nc2ccc3c(c2)N(CCC(C)(C)O)C(=O)C3)n1)C1CCN(c2ccc3c(C4CCC(=O)NC4=O)nn(C)c3c2)CC1 (stereo not drawn)
### Response > 60%

Numbers sourced from patent US12404239B2.
